target: T1, human guanylyl cyclase C (GCC) (human, UniProt P25092 24-1073); assay: flow cytometry, 293 GCC #2 cells, 0.063 µg/ml
T1 construct: also called hGCC; STAR
T1 sequence (P25092 24-1073 limits assumed): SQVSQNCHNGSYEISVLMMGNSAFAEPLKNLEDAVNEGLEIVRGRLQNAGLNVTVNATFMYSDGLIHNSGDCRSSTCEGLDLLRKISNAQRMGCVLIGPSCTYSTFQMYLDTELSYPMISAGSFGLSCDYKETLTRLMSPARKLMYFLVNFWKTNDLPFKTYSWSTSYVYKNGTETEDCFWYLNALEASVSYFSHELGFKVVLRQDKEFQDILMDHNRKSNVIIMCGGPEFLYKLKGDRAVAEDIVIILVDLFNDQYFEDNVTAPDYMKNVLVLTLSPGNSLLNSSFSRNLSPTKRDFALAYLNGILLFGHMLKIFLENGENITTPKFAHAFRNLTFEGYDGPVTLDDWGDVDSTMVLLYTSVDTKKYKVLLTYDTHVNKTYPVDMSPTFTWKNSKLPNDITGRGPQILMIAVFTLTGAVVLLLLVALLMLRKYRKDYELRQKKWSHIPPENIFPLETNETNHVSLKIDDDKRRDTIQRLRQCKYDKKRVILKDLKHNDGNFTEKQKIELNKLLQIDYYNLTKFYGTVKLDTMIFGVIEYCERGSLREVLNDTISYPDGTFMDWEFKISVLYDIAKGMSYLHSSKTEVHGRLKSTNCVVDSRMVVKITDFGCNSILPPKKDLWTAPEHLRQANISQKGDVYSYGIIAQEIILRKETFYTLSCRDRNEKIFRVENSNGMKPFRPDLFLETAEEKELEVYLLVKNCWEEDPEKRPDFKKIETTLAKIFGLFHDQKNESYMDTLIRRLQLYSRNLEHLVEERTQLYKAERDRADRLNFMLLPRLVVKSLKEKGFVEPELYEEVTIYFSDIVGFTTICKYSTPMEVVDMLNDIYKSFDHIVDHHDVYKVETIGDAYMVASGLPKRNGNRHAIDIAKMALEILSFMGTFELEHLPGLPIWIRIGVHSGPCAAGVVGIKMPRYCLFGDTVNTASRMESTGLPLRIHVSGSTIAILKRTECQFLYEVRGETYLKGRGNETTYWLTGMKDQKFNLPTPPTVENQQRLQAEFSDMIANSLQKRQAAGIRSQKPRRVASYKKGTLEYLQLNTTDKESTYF
# key: entry, value: MFI

binder	MFI
5F9-vc-MMAF (antibody, V domains shown, mc-vc-MMAF linked to cysteines freed by partial reduction of interchain disulfides (outside this variable domain); average drug loading about four) VH: QVQLQQWGAGLLKPSETLSLTCAVFGGSFSGYYWSWIRQPPGKGLEWIGEINHRGNTNDNPSLKSRVTISVDTSKNQFALKLSSVTAADTAVYYCARERGYTYGNFDHWGQGTLVTVSS VL: EIVMTQSPATLSVSPGERATLSCRASQSVSRNLAWYQQKPGQAPRLLIYGASTRATGIPARFSGSGSGTEFTLTIGSLQSEDFAVYYCQQYKTWPRTFGQGTNVEIK	4830
5F9-mc-MMAF (antibody, V domains shown, mc-MMAF (non-cleavable linker) linked to cysteines freed by partial reduction of interchain disulfides (outside this variable domain); average drug loading about four) VH: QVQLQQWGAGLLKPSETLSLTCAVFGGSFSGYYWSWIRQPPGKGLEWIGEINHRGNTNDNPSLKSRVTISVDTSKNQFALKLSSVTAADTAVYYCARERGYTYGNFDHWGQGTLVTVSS VL: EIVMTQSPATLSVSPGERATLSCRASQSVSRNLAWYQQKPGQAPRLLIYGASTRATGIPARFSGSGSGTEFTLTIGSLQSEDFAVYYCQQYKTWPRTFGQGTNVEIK	5350
anti-GCC human monoclonal antibody 5F9 (antibody, V domains shown, also called mAb 5F9; MAb 5F9 (Prep A)) VH: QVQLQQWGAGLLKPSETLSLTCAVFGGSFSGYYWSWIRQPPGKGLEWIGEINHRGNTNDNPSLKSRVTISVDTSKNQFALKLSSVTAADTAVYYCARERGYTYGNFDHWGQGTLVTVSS VL: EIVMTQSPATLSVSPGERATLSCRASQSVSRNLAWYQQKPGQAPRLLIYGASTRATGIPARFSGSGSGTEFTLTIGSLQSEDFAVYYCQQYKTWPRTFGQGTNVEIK	6620
5F9 vcMMAE immunoconjugate (antibody, V domains shown, mc-vc-MMAE linked to cysteines freed by partial reduction of interchain disulfides (outside this variable domain); average drug loading about 4 (3.6 in the described preparation), also called MLN0264; ML0264) VH: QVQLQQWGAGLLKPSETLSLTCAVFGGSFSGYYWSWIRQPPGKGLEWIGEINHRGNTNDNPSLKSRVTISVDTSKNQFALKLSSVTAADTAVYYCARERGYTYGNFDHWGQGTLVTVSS VL: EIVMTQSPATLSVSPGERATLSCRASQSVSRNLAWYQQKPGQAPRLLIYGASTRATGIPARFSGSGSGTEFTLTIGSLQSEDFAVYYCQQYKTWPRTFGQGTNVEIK	4850
